Test system: CRMM1 conjunctival melanoma cell line
Test: SRB cell viability assay, CRMM1
Type: cell-based, Human
Conditions: CRMM1, green light 520 nm, 15 min, 21 mW/cm^2, 19 J.cm^−2, DLI 24 h; read-out: EC50,light
readout_type: EC50 (nM)
Record the value in nM, omitting the unit from your answer.

**Query** Recorded EC50 for Cc1ccnc(-c2cc(C)ccn2)c1.Cc1ccnc(-c2cc(C)ccn2)c1.[Cl-].[Cl-].[Ru+2].c1csc(-c2ccc(-c3ccc(-c4nc5c6cccnc6c6ncccc6c5[nH]4)s3)s2)c1 [TLD1433] , please?
**Result** 5.9

---

System: A375 cutaneous melanoma cell line
Experiment: SRB cell viability assay, A375
Type: cell-based, Human
Settings: A375, green light 520 nm, 15 min, 21 mW/cm^2, 19 J.cm^−2, DLI 24 h; read-out: EC50,light
readout_type: EC50 (nM)
Record the value in nM, omitting the unit from your answer.

**Query** Recorded EC50 for `Cc1ccnc(-c2cc(C)ccn2)c1.Cc1ccnc(-c2cc(C)ccn2)c1.[Cl-].[Cl-].[Ru+2].c1csc(-c2ccc(-c3ccc(-c4nc5c6cccnc6c6ncccc6c5[nH]4)s3)s2)c1` , please?
**Result** 50

---

Test system: OMM2.5 uveal melanoma cell line
Assay: SRB cell viability assay, OMM2.5
Type: cell-based, Human
Details: OMM2.5, dark, 24 h treatment, SRB; read-out: EC50, dark
readout_type: EC50 (nM)
Record the value in nM, omitting the unit from your answer.

**Query** Recorded EC50 for `Cc1ccnc(-c2cc(C)ccn2)c1.Cc1ccnc(-c2cc(C)ccn2)c1.[Cl-].[Cl-].[Ru+2].c1csc(-c2ccc(-c3ccc(-c4nc5c6cccnc6c6ncccc6c5[nH]4)s3)s2)c1` , please?
**Result** 640

---

Tested on: MEL270 uveal melanoma cell line
Experiment: SRB cell viability assay, MEL270
Assay type: cell-based, Human
Conditions: MEL270, green light 520 nm, 15 min, 21 mW/cm^2, 19 J.cm^−2, DLI 24 h; read-out: EC50,light
readout_type: EC50 (nM)
Record the value in nM, omitting the unit from your answer.

**Query** Recorded EC50 for Cc1ccnc(-c2cc(C)ccn2)c1.Cc1ccnc(-c2cc(C)ccn2)c1.[Cl-].[Cl-].[Ru+2].c1csc(-c2ccc(-c3ccc(-c4nc5c6cccnc6c6ncccc6c5[nH]4)s3)s2)c1 [TLD1433] , please?
**Result** 10

---

System: CM2005.1 conjunctival melanoma cell line
Experiment: SRB cell viability assay, CM2005.1
Assay type: cell-based, Human
Conditions: CM2005.1, dark, 24 h treatment, SRB; read-out: EC50, dark
readout_type: EC50
# output: numeric value plus its unit

**Query** # value lookup — system CM2005.1 conjunctival melanoma cell line, readout EC50, item `Cc1ccnc(-c2cc(C)ccn2)c1.Cc1ccnc(-c2cc(C)ccn2)c1.[Cl-].[Cl-].[Ru+2].c1csc(-c2ccc(-c3ccc(-c4nc5c6cccnc6c6ncccc6c5[nH]4)s3)s2)c1`
**Result** 1.1 µM

Entry source: paper PMC7139549
